- tgt: Nuclear receptor subfamily 1 group I member 2 (Homo sapiens, UniProt O75469)
- Sequence (O75469 whole entry): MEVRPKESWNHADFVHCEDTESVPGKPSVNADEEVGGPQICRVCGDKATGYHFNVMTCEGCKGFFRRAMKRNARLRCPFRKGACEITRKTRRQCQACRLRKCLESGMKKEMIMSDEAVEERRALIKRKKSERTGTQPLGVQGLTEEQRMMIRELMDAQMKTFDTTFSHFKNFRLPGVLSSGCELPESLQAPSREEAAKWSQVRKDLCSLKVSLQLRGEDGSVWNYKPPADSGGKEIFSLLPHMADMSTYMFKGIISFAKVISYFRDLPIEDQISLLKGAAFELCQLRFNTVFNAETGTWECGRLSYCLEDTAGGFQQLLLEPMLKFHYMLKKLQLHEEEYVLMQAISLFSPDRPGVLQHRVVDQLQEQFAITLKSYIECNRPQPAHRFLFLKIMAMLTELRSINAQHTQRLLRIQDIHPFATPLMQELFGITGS
- assay.info: Activity at PXR in human hepatocytes assessed as induction of CYP3A4 activity at 1 uM relative rifampicin
- Type: cell-based, Hepatocyte
Respond with fulfilled for Ratio values of 0.6 and above, not fulfilled for values below.

[Q] Evaluate COC(=O)N[C@]1(c2ccc(Cl)cn2)C[C@H]2CC[C@@H](C1)N2C(c1ccccc1Cl)c1ccccc1Cl : Ratio at minimum 0.6?
[A] fulfilled

[Q] Form field: Ratio at least 0.6? Entry: NC(=O)[C@]1(c2cc(F)cc(F)n2)C[C@H]2CC[C@@H](C1)N2C(c1ccccc1Cl)c1ccccc1Cl
[A] not fulfilled

[Q] Does NC(=O)C[C@]1(Cc2ccc(F)cc2)C[C@H]2CC[C@@H](C1)N2C(c1ccccc1Cl)c1ccccc1Cl have a reported Ratio of at least 0.6?
[A] not fulfilled

[Q] Exam item: decide whether the reported Ratio for NC(=O)[C@]1(c2ccccn2)C[C@H]2CC[C@@H](C1)N2C(c1ccccc1Cl)c1ccccc1Cl is at least 0.6.
[A] fulfilled

[Q] Is it the case that COC(=O)NC1(c2ccc(F)cn2)C[C@H]2CC[C@H](C1)N2C(c1ccccc1Cl)c1ccccc1Cl (relative stereo) has Ratio reaching or exceeding 0.6?
[A] fulfilled

###

Kindly state Ki for each of the entries shown.
# unit: nM | format: bare number

[Q] Return Ki measured with UniProt:P35372 given this molecule: COc1ccc([C@@]2(C(N)=O)C[C@H]3CC[C@@H](C2)N3C(c2ccccc2Cl)c2ccccc2Cl)nc1
Sequence (P35372 whole entry): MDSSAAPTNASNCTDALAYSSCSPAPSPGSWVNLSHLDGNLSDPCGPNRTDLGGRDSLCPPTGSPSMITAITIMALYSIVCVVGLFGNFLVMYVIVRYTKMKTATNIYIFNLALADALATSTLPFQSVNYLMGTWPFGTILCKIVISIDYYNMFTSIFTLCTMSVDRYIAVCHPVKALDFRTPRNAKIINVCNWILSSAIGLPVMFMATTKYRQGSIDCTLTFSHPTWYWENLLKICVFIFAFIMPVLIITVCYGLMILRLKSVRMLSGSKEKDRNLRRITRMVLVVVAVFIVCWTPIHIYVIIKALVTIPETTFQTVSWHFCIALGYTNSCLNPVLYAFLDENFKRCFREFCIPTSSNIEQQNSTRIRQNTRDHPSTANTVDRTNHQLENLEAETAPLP
[A] 133

[Q] Request: Ki, test system UniProt:P35372, entry NC(=O)[C@]1(c2cc(CF)c(F)cn2)C[C@H]2CC[C@@H](C1)N2C(c1ccccc1Cl)c1ccccc1Cl
[A] 367

[Q] Provide the documented Ki with UniProt:P35372 as the system for NC(=O)[C@]1(c2ccc(N)cn2)C[C@H]2CC[C@@H](C1)N2C(c1ccccc1Cl)c1ccccc1Cl
[A] 205

[Q] Param readout = Ki; param system = UniProt:P35372; param query = CC(=O)N[C@]1(c2ccccn2)C[C@H]2CC[C@@H](C1)N2C(c1ccccc1Cl)c1ccccc1Cl ; response: value
[A] 312

[Q] Observed Ki on UniProt:P35372 for NC(=O)[C@]1(c2cc(F)c(F)cn2)C[C@H]2CC[C@@H](C1)N2C(c1ccccc1Cl)c1ccccc1Cl , please.
[A] 74

[Q] Please provide the recorded Ki for N#Cc1ccc([C@@]2(C(N)=O)C[C@H]3CC[C@@H](C2)N3C(c2ccccc2Cl)c2ccccc2Cl)nc1 , tested on UniProt:P35372.
[A] 481

[Q] Entry CN(C)[C@]1(c2ccccn2)C[C@H]2CC[C@@H](C1)N2C(c1ccccc1Cl)c1ccccc1Cl , system UniProt:P35372: what Ki was measured?
[A] 840

[Q] Give the reported Ki for NC(=O)c1ccc([C@@]2(C(N)=O)C[C@H]3CC[C@@H](C2)N3C(c2ccccc2Cl)c2ccccc2Cl)nc1 (system: UniProt:P35372).
[A] 1320

###

Task for the reader: assign each of the following molecules its reported Ratio.
- tgt: Nuclear receptor subfamily 1 group I member 2 (Homo sapiens, UniProt O75469)
- assay.info: Activity at PXR in human hepatocytes assessed as induction of CYP3A4 activity at 1 uM relative rifampicin
- Type: cell-based, Hepatocyte
Enter a number only.

[Q] # input molecule: NC(=O)[C@]1(c2cccc(F)n2)C[C@H]2CC[C@@H](C1)N2C(c1ccccc1Cl)c1ccccc1Cl ; wanted: its Ratio
[A] 1.06

[Q] Quick one: Ratio for NC(=O)[C@]1(c2nc(F)ccc2F)C[C@H]2CC[C@@H](C1)N2C(c1ccccc1Cl)c1ccccc1Cl ?
[A] 0.83

[Q] Query (molecule): NC(=O)[C@]1(c2ccc(Br)cn2)C[C@H]2CC[C@@H](C1)N2C(c1ccccc1Cl)c1ccccc1Cl ; field requested: Ratio
[A] 0.09

[Q] Given the entry CC(=O)NC[C@]1(c2ccccc2)C[C@H]2CC[C@@H](C1)N2C(c1ccccc1Cl)c1ccccc1Cl , report its measured Ratio.
[A] 0.94

[Q] # get_value(readout='Ratio', item= NC(=O)[C@@]1(Cc2ccc(F)cc2)C[C@H]2CC[C@@H](C1)N2C(c1ccccc1Cl)c1ccccc1Cl )
[A] 0.48

[Q] Bench note: what Ratio did NC(=O)[C@]1(c2ccc(Cl)cn2)C[C@H]2CC[C@@H](C1)N2C(c1ccccc1Cl)c1ccccc1Cl show?
[A] 0.27

[Q] Quick one: Ratio of COc1ccc([C@@]2(C(N)=O)C[C@H]3CC[C@@H](C2)N3C(c2ccccc2Cl)c2ccccc2Cl)nc1 ?
[A] 0.19

[Q] Return reported Ratio; argument: NC(=O)[C@]1(c2ccc(F)cn2)C[C@H]2CC[C@@H](C1)N2C(c1ccccc1Cl)c1ccccc1Cl
[A] 0.29
